# TEST SUMMARY: Selectivity ratio of IC50 for cytotoxicity against human A549 cells harboring wild type EGFR to IC50 for antiproliferative activity against human NCI-H1975 cells harboring EGFR L858R/T790M mutant
# Format: toxicity, cell-based
# TEST CONDITIONS: read-out: Ratio IC50
The entries below are paired with their reported selectivity ratio.
PARAMETER: selectivity ratio

1. C=CC(=O)Nc1cccc(Nc2nc(Nc3ccc(N4CCN(CC)CC4)cc3)nc3ccc(Cl)cc23)c1 : 32
2. C=CC(=O)Nc1cccc(Nc2nc(Nc3ccc(N4CCN(CC)CC4)cc3)nc3ccc(F)cc23)c1 : 60
3. C=CC(=O)Nc1cccc(Nc2nc(Nc3ccc(N4CCN(C)CC4)cc3)nc3ccc(Cl)cc23)c1 : 48
4. C=CC(=O)Nc1cccc(Nc2nc(Nc3ccc(N4CCN(C)CC4)cc3)nc3ccc(F)cc23)c1 : 211

----------
# MEASUREMENT TARGET: Epidermal growth factor receptor (Homo sapiens, UniProt P00533, EX19DEL)
# Sequence (P00533 whole entry, looked up, stated change not applied): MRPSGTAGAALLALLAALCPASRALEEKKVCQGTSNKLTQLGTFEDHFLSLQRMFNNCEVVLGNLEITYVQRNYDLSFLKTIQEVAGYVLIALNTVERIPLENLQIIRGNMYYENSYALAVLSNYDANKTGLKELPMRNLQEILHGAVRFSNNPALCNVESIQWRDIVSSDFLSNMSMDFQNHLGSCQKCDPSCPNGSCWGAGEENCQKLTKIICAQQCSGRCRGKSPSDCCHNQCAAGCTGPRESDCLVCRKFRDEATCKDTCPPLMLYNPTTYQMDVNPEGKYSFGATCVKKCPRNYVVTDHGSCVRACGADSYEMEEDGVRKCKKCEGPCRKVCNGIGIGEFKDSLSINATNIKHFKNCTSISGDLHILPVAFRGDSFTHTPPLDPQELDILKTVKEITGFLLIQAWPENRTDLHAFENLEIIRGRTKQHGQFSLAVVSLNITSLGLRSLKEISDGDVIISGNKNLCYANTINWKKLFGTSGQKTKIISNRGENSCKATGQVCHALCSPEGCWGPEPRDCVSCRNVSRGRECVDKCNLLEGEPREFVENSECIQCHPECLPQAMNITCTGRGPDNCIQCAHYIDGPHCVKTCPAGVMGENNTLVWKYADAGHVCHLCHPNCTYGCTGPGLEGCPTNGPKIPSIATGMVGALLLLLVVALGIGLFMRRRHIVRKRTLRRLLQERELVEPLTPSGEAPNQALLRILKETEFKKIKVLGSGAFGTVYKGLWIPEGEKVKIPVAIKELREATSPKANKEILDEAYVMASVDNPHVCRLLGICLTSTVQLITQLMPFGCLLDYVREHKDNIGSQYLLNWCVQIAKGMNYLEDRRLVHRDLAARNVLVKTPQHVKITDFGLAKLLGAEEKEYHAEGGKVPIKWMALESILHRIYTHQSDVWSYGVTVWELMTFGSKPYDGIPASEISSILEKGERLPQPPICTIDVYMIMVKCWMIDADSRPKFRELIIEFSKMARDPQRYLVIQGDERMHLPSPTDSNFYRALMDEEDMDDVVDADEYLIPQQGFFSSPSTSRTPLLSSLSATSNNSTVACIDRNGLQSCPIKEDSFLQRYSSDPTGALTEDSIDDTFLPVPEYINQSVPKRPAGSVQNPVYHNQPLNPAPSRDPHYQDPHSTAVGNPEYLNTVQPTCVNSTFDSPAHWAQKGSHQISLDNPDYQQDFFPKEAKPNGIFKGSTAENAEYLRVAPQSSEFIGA
# TEST SUMMARY: Inhibition of human EGFR exon del19 mutant by KINOMEscan analysis
pIC50: −log10 of the molar value.
PARAMETER: pIC50

1. C=CC(=O)Nc1cccc(Nc2nc(Nc3ccc(N4CCN(C)CC4)cc3)nc3ccc(F)cc23)c1 : 8.89

----------
The entries below are paired with their reported selectivity ratio.
# TEST SUMMARY: Selectivity ratio of IC50 for cytotoxicity against human A-431 cells harboring wild type EGFR to IC50 for antiproliferative activity against human NCI-H1975 cells harboring EGFR L858R/T790M mutant
# Type: toxicity, cell-based
# TEST CONDITIONS: read-out: Ratio IC50
PARAMETER: selectivity ratio

1. C=CC(=O)Nc1cccc(Nc2nc(Nc3ccc(N4CCN(CC)CC4)cc3)nc3ccc(Cl)cc23)c1 : 35
2. C=CC(=O)Nc1cccc(Nc2nc(Nc3ccc(N4CCN(CC)CC4)cc3)nc3ccc(F)cc23)c1 : 62
3. C=CC(=O)Nc1cccc(Nc2nc(Nc3ccc(N4CCN(C)CC4)cc3)nc3ccc(F)cc23)c1 : 130
4. C=CC(=O)Nc1cccc(Nc2nc(Nc3ccc(N4CCN(C)CC4)cc3)nc3ccc(Cl)cc23)c1 : 73

----------
# TEST SUMMARY: Cytotoxicity against human A549 cells harboring wild type EGFR assessed as reduction in cell viability measured after 72 hrs by MTT assay
# Format: toxicity, cell-based
The entries below are paired with their reported IC50 at 72 h.
PARAMETER: IC50 at 72 h (µM)

1. C=CC(=O)Nc1cccc(Nc2nc(Nc3ccc(N4CCOCC4)cc3)nc3ccc(F)cc23)c1 : 8.52
2. C=CC(=O)Nc1cccc(Nc2nc(Nc3ccc(N4CCN(CC)CC4)cc3)nc3ccc(F)cc23)c1 : 1.52
3. C=CC(=O)Nc1cccc(Nc2nc(Nc3ccc(N4CCN(C)CC4)cc3)nc3cc(Cl)ccc23)c1 : 5.79
4. C=CC(=O)Nc1cccc(Nc2nc(Nc3ccc(N4CCN(C)CC4)cc3)nc3cc(F)ccc23)c1 : 7.81
5. C=CC(=O)Nc1cccc(Nc2nc(Nc3ccc(N4CCC(N5CCN(C)CC5)CC4)cc3OC)nc3ccc(F)cc23)c1 : 8.95
